# method_notes: in vivo
# cond: Balb/c nu/nu, mouse, small intestine, 48 pmol, total radioactivity
measurement_name: tissue uptake at 2 h (%ID/g)
# unit: %ID/g | format: bare number

tissue uptake at 2 h measured on CC1=NNC(c2ccc(CNC(=O)c3ccc(F)nc3)cc2)=C2CCC[C@H](OC(=O)NCCOCCOCCC(=O)N[C@H](Cc3ccccc3)C(=O)N[C@@H](CCC(N)=O)C(=O)N[C@@H](Cc3c[nH]c4ccccc34)C(=O)N[C@@H](C)C(=O)N[C@H](C(=O)NCC(=O)N[C@@H](Cc3c[nH]cn3)C(=O)N[C@@H](CC(C)C)[C@@H](O)CC(=O)N[C@@H](CC(C)C)C(N)=O)C(C)C)CCC12 (stereo partly shown) [8a] = 4
